Experiment: Antiproliferative activity against Con A-induced BALB/c mouse T cell after 48 hrs by CCK8 assay
Type: functional, tissue-based, T cell line
OBSERVATION TYPE: IC50

- C#CCOC(=O)[C@]1(C)CC[C@]2(C)CC[C@]3(C)C4=C[C@@H](c5c[nH]c6ccc(C)cc56)c5c(cc(OC(C)=O)c(OC(C)=O)c5C)[C@]4(C)CC[C@@]3(C)[C@@H]2C1: ≥ 10 µM
- C#CCOC(=O)[C@]1(C)CC[C@]2(C)CC[C@]3(C)C4=C[C@@H](c5c[nH]c6ccccc56)c5c(cc(OC(C)=O)c(OC(C)=O)c5C)[C@]4(C)CC[C@@]3(C)[C@@H]2C1: ≥ 10 µM
- C#CCOC(=O)[C@]1(C)CC[C@]2(C)CC[C@]3(C)C4=C[C@@H](c5c[nH]c6cc(F)ccc56)c5c(cc(OC(C)=O)c(OC(C)=O)c5C)[C@]4(C)CC[C@@]3(C)[C@@H]2C1: ≥ 10 µM
- C#CCOC(=O)[C@]1(C)CC[C@]2(C)CC[C@]3(C)C4=C[C@@H](c5c[nH]c6ccc(Br)cc56)c5c(cc(OC(C)=O)c(OC(C)=O)c5C)[C@]4(C)CC[C@@]3(C)[C@@H]2C1: ≥ 10 µM
- C#CCOC(=O)[C@]1(C)CC[C@]2(C)CC[C@]3(C)C4=C[C@@H](c5c[nH]c6cc(Cl)ccc56)c5c(cc(OC(C)=O)c(OC(C)=O)c5C)[C@]4(C)CC[C@@]3(C)[C@@H]2C1: ≥ 10 µM
